Target: T1, human ICOS-mFc (Chimerigen) (human, UniProt Q9Y6W8 21-140)
T1 construct: also called human ICOS receptor; human ICOS Receptor; not shown: mouse Fc of the bought construct
T1 sequence: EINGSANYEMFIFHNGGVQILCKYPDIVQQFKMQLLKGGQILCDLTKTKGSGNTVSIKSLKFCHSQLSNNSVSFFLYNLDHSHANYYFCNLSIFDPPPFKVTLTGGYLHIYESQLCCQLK
Experiment: HTRF neutralisation of Alexa 647 human B7-H2 binding to human ICOS-mFc; human IgG1; mean, n = 4
Protocol: 5 μl of ICOS receptor (human ICOS-mFc, 20 nM, 5 nM final or mouse ICOS-mFc 4 nM, 1 nM final (Chimerigen)) was added to required wells. Plate was incubated for 1 hr at room temperature (RT). Finally, 5 μl of anti-mouse IgG donor mAb (Southern Biotech) labelled with europium cryptate (Cis Bio), 40 nM, 10 nM final was added to each well and the assay was left in the dark at RT to incubate for a further 2 hours. […] IC50 values were calculated by first transforming the data using equation X=Log(X). […]
Measured IC50 by item
Form entry: value (nM) — number only.

Answered examples (4):
STIM002 human IgG1 (antibody, V domains shown, Human IgG1 format) VH: QVQLVQSGGEVKKPGASVKVSCKASGYTFTSYGFSWVRQAPGQGLEWMGWISAYNGNTNYAQKLQGRVTMTTDTSTSTAYMELRSLRSDDTAVYYCARSTYFYGSGTLYGMDVWGQGTTVTVSS VL: DIVMTQSPLSLPVTPGEPASISCRSSQSLLHSDGYNYLDWYLQKPGQSPQLLIYLGSTRASGFPDRFSGSGSGTDFTLKISRVEAEDVGVYYCMQALQTPLSFGQGTKLEIKR    1.9
STIM005 human IgG1 (antibody, V domains shown, Human IgG1 format) VH: QVQLVQSGAEVKKPGASVKVSCKASGYTFNSYGIIWVRQAPGQGLEWMGWISVHNGNTNCAQKLQGRVTMTTDTSTSTAYMELRSLRTDDTAVYYCARAGYDILTDFSDAFDIWGHGTMVTVSS VL: DIQMTQSPSSLSASVGDRVTITCRASQNINNFLNWYQQKEGKGPKLLIYAASSLQRGIPSTFSGSGSGTDFTLTISSLQPEDFATYICQQSYGIPWVGQGTKVEIKR    2.5
STIM002-B human IgG1 (antibody, V domains shown, Human IgG1 format) VH: QVQLVQSGGEVKKPGASVKVSCKASGYTFTSYGFSWVRQAPGQGLEWMGWISAYNGNTNYAQKLQGRVTMTTDTSTSTAYMELRSLRSDDTAVYYCARSTYFYGSGTLYGMDVWGQGTTVTVSS VL: DIVMTQSPLSLPVTPGEPASISCRSSQSLLHSDGYNCLDWYLQKPGQSPQLLIYLGSTRASGFPDRFSGSGSGTDFTLKISRVEAEDVGVYYCMQALQTPCSFGQGTKLEIKR    3.6
STIM003 human IgG1 (antibody, V domains shown, Human IgG1 format; Conjugated with AF647 in the direct staining assays, coupled to beads or plates in the MJ cell assays; also called STIM003 (hIgG1); STIM003 hIgG1) VH: EVQLVESGGGVVRPGGSLRLSCVASGVTFDDYGMSWVRQAPGKGLEWVSGINWNGGDTDYSDSVKGRFTISRDNAKNSLYLQMNSLRAEDTALYYCARDFYGSGSYYHVPFDYWGQGILVTVSS VL: EIVLTQSPGTLSLSPGERATLSCRASQSVSRSYLAWYQQKRGQAPRLLIYGASSRATGIPDRFSGDGSGTDFTLSISRLEPEDFAVYYCHQYDMSPFTFGPGTKVDIKR    1.3

Record request: IC50 value, item STIM001 human IgG1 (antibody, V domains shown, Human IgG1 format; Conjugated with AF647 in the direct staining assays, coupled to beads or plates in the MJ cell assays; also called STIM001 (hIgG1); STIM001 hIgG1) VH: QVQVVQSGAEVKKPGASVKVSCKASGYTFSTFGITWVRQAPGQGLEWMGWISAYNGDTNYAQNLQGRVIMTTDTSTSTAYMELRSLRSDDTAVYYCARSSGHYYYYGMDVWGQGTTVTVSS VL: DIVMTQSPLSLPVTPGEPASISCRSSQSLLHSNEYNYLDWYLQKPGQSPQLLIFLGSNRASGVPDRFSGSGSGTDFTLKITRVEAEDVGIYYCMQSLQTPLTFGGGTKVEIKR
2.2
